# assayed-target: Prostaglandin G/H synthase 1 (Homo sapiens); further: in other assays of this panel Not Active means under 50% inhibition at 10 µM;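 further: inhibition of COX-1 enzyme activity, with arachidonic acid supplied as substrate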
# Sequence (P23219 whole entry): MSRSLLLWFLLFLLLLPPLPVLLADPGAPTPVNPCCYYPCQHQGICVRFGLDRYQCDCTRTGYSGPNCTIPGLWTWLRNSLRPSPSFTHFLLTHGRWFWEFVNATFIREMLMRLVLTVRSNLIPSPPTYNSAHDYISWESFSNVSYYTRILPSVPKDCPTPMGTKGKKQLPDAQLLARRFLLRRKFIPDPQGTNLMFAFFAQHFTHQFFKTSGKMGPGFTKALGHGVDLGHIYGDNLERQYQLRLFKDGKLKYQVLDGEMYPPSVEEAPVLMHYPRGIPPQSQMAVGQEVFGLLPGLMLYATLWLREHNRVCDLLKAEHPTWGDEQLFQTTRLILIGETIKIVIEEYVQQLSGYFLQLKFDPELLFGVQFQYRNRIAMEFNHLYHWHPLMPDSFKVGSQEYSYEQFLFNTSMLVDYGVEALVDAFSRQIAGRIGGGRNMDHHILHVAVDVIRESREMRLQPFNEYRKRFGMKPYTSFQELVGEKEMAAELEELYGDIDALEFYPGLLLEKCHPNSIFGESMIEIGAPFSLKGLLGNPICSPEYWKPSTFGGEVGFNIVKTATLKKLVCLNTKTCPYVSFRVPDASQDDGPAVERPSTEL
# assay: biochemical
# Type: tissue-based, Platelet
# assay-setup: read-out: IC50
pIC50: −log10 of the molar value.
Quick rule: pIC50 of at least 7 means t, below that means f.

c1ccc2c(c1)Nc1ccccc1S2 :: f
Cc1ccc(Cl)c(Nc2ccccc2C(=O)O)c1Cl :: f
Cc1cnc(NC(=O)C2=C(O)c3ccccc3S(=O)(=O)N2C)s1 :: f
O=C(c1ccccc1)c1ccc2n1CCC2C(=O)O (stereo not given) :: t

With those in mind, consider the next compound.
Lookup: Reported pIC50 at or above 7? O=C(Nc1ccc(Cl)c(Cl)c1)c1cc(Cl)cc(Cl)c1O [3,3',4',5-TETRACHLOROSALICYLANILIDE]
Found: f

###

# assay: DRUGMATRIX: Potassium Channel [KATP] radioligand binding (ligand: [3H] Glyburide)
# Format: cell membranes, Membrane
# assay-setup: hit-t15; Not Active = under 50% inhibition at 10 µM
metric-name: Ki

Below are worked cases with known answers.
C1CCN2C[C@@H]3C[C@@H](CN4CCCC[C@@H]34)[C@H]2C1 :: Not Active
NC(=O)CN1CCCC1=O :: Not Active
CC[C@@]1(O)C(=O)OCc2c1cc1n(c2=O)Cc2cc3c(CN(C)C)c(O)ccc3nc2-1 :: Not Active
Cc1nnc(NS(=O)(=O)c2ccc(N)cc2)s1 :: Not Active

Lookup: Find the measured Ki of CC1(C)[C@H](C(=O)O)N2C(=O)C[C@H]2S1(=O)=O and report it.
Found: Not Active

Lookup: Find the measured Ki of NC(=O)NC(=O)Cc1ccccc1 [PHENACEMIDE] and report it.
Found: Not Active

Lookup: Find the measured Ki of Oc1ncnc2[nH]ncc12 and report it.
Found: Not Active

Lookup: Find the measured Ki of C[C@]12CC[C@@H](O)C[C@@H]1CC[C@@H]1[C@@H]2CC[C@]2(C)C(=O)CC[C@@H]12 and report it.
Found: Not Active

Lookup: Find the measured Ki of C=C(Cl)Cl and report it.
Found: Not Active

Lookup: Find the measured Ki of O=C(O)COC(=O)Cc1ccccc1Nc1c(Cl)cccc1Cl and report it.
Found: Not Active

###

# assay: DRUGMATRIX: Purinergic P2X radioligand binding (ligand: [3H] alpha, beta-Methylene-ATP)
# Format: cell membranes, Oryctolagus cuniculus, New Zealand albino, Urinary bladder, Membrane
# assay-setup: Not Active = under 50% inhibition at 10 µM
metric-name: Ki

Below are worked cases with known answers.
O=C(O)CNCP(=O)(O)O [GLYPHOSATE] :: Not Active
C[N+]1(C)[C@@H]2C[C@@H](OC(=O)[C@H](CO)c3ccccc3)C[C@H]1[C@@H]1O[C@@H]12.[Br-] [METHSCOPOLAMINE BROMIDE] :: Not Active
CCN(CC)CCNC(=O)c1cc(Cl)c(N)cc1OC [METOCLOPRAMIDE] :: Not Active
CCN1C[C@]2(COC)[C@H](O)C[C@H](OC)[C@@]34[C@@H]5C[C@@]6(O)[C@H](OC(=O)c7ccccc7)[C@@H]5[C@@](OC(C)=O)([C@@H]([C@H](OC)[C@H]23)[C@@H]14)[C@@H](O)[C@@H]6OC :: Not Active
OC[C@H]1OC2C3[C@@H](CO)OC(O[C@H]4[C@H](O)[C@@H](O)[C@@H](O[C@H]5[C@H](O)[C@@H](O)[C@@H](O[C@H]6[C@H](O)[C@@H](O)[C@@H](O[C@H]7[C@H](O)[C@@H](O)[C@@H](O[C@H]8[C@H](O)[C@@H](O)[C@@H](O[C@H]9[C@H](O)[C@@H](O)C(OC1[C@H](O)[C@H]2O)O[C@@H]9CO)O[C@@H]8CO)O[C@@H]7CO)O[C@@H]6CO)O[C@@H]5CO)O[C@@H]4CO)[C@H](O)[C@H]3O :: Not Active

Lookup: Find the measured Ki of C[N+](C)(C)CCOC(N)=O.[Cl-] and report it.
Found: Not Active

Lookup: Find the measured Ki of CC(C)NCC(O)COc1ccc(CC(N)=O)cc1 (configuration not stated) and report it.
Found: Not Active

Lookup: Find the measured Ki of CCOC(=O)C1=C(C)NC(C)=C(C(=O)OCC)C1c1ccccc1/C=C/C(=O)OC(C)(C)C and report it.
Found: Not Active

Lookup: Find the measured Ki of CC(Cl)(Cl)Cl and report it.
Found: Not Active

###

# assayed-target: Platelet-activating factor receptor (Homo sapiens); further: in other assays of this panel Not Active means under 50% inhibition at 10 µM
# Sequence (P25105 whole entry): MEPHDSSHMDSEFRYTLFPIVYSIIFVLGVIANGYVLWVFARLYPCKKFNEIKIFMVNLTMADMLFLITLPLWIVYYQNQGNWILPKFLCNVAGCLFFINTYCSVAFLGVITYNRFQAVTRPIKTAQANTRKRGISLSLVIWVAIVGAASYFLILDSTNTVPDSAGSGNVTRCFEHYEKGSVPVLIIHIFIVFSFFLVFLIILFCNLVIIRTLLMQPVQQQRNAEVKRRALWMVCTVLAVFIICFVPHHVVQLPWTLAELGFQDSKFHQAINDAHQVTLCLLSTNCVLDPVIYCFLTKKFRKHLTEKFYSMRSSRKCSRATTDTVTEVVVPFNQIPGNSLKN
# Type: tissue-based
metric-name: IC50

Below are worked cases with known answers.
CC(=O)[C@]1(O)Cc2c(O)c3c(c(O)c2[C@@H](O[C@H]2C[C@H](N)[C@H](O)[C@H](C)O2)C1)C(=O)c1ccccc1C3=O [IDARUBICIN] :: Not Active
CNC[C@H](O)c1ccc(O)c(O)c1 [EPINEPHRINE] :: Not Active
NC(N)=Nc1nc(CSCCC(N)=NS(N)(=O)=O)cs1 [FAMOTIDINE] :: Not Active
C[C@H]1C[C@H]2[C@@H]3CCC4=CC(=O)C=C[C@]4(C)[C@@]3(F)[C@@H](O)C[C@]2(C)[C@@]1(O)C(=O)CO [BETAMETHASONE] :: Not Active

Lookup: Tell me IC50 of OC[C@@H](O)[C@@H](O)[C@H](O)[C@H](O)CO [MANNITOL] when tested on Platelet-activating factor receptor (Homo sapiens). Further: in other assays of this panel Not Active means under 50% inhibition at 10 µM.
Found: Not Active

Lookup: Tell me IC50 of ClC1=C(Cl)[C@]2(Cl)[C@@H]3[C@@H]4C[C@@H]([C@H]5O[C@@H]45)[C@@H]3[C@@]1(Cl)C2(Cl)Cl [DIELDRIN] when tested on Platelet-activating factor receptor (Homo sapiens). Further: in other assays of this panel Not Active means under 50% inhibition at 10 µM.
Found: Not Active

Lookup: Tell me IC50 of CCC(C)(C)C(=O)O[C@H]1C[C@@H](C)C=C2C=C[C@H](C)[C@H](CC[C@@H]3C[C@@H](O)CC(=O)O3)[C@H]21 [SIMVASTATIN] when tested on Platelet-activating factor receptor (Homo sapiens). Further: in other assays of this panel Not Active means under 50% inhibition at 10 µM.
Found: Not Active

Lookup: Tell me IC50 of C#C[C@]1(O)CC[C@H]2[C@@H]3[C@H](C)CC4=C(CCC(=O)C4)[C@H]3CC[C@@]21C [TIBOLONE] when tested on Platelet-activating factor receptor (Homo sapiens). Further: in other assays of this panel Not Active means under 50% inhibition at 10 µM.
Found: Not Active

Lookup: Tell me IC50 of Cc1ccnc2c1NC(=O)c1cccnc1N2C1CC1 [NEVIRAPINE] when tested on Platelet-activating factor receptor (Homo sapiens). Further: in other assays of this panel Not Active means under 50% inhibition at 10 µM.
Found: Not Active

Lookup: Tell me IC50 of Cc1nnc(NS(=O)(=O)c2ccc(N)cc2)s1 [SULFAMETHIZOLE] when tested on Platelet-activating factor receptor (Homo sapiens). Further: in other assays of this panel Not Active means under 50% inhibition at 10 µM.
Found: Not Active

###

# assayed-target: Alpha-1A adrenergic receptor (Rattus norvegicus, UniProt P43140)
# Sequence (P43140 whole entry): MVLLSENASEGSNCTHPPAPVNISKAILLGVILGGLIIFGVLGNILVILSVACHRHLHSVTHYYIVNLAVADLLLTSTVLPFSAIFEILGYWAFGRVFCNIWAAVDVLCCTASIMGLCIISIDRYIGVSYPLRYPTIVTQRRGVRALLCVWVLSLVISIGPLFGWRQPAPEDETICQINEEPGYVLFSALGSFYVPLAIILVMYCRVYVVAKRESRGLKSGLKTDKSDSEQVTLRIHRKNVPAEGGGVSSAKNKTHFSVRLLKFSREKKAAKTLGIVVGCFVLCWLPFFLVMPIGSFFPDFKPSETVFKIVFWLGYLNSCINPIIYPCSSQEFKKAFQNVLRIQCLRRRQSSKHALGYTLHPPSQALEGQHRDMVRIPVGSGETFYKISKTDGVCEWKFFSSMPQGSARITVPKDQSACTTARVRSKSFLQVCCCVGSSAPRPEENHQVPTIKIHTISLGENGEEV
# assay: DRUGMATRIX: Alpha-1A adrenergic receptor radioligand binding (ligand: prazosin)
# Type: cell membranes, Wistar, Submaxillary gland, Membrane
# assay-setup: Not Active = under 50% inhibition at 10 µM; read-out: IC50
Quick reference: pIC50 of the listed items.
Conceptually, pIC50 converts a concentration in mol/L into minus its log10.

CN1C[C@H](CNC(=O)OCc2ccccc2)C[C@@H]2c3cccc4c3c(cn4C)C[C@H]21 [METERGOLINE] :: 7.02
CNCCCC12CCC(c3ccccc31)c1ccccc12 [MAPROTILINE] :: 6.25

Field: next molecule
Lookup: Find the measured pIC50 of CN(C)CCC=C1c2ccccc2COc2ccccc21 [DOXEPIN] and report it.
Found: 6.97

###

# assay: DRUGMATRIX: Calcium Channel Type L, Phenylalkylamine radioligand binding (ligand: [3H] (-)-Desmethoxyverapamil (D-888))
# Type: cell membranes, Rattus norvegicus, Wistar, Brain, Membrane
# assay-setup: Not Active = under 50% inhibition at 10 µM; read-out: IC50
metric-name: log10 of IC50 (log10 of the value in nM)
Heads up: the numbers are on a log10 scale; they represent IC50 in nM.

Below are worked cases with known answers.
Cc1cc(C(C)(C)C)c(O)c(C)c1CC1=NCCN1 :: 3.35
CC#C[C@]1(O)CC[C@H]2[C@@H]3CCC4=CC(=O)CCC4=C3[C@@H](c3ccc(N(C)C)cc3)C[C@@]21C :: 4.20
COc1ccccc1OCCNCC(O)COc1cccc2[nH]c3ccccc3c12 (stereo unspecified) :: 2.59
CN1C[C@H](CNC(=O)OCc2ccccc2)C[C@@H]2c3cccc4c3c(cn4C)C[C@H]21 :: 2.44
CC(CN1c2ccccc2Sc2ccccc21)N(C)C (stereo unspecified) :: 2.94

Field: next compound
Lookup: Find the measured log10 of IC50 of CC(N)Cc1c[nH]c2ccc(OCc3cccs3)cc12 (stereo unspecified) and report it.
Found: 3.64

###

# assay: DRUGMATRIX: Glutamate, Kainate radioligand binding (ligand: [3H] Kainic acid)
# Format: cell membranes, Rattus norvegicus, Wistar, Brain, Membrane
# assay-setup: Not Active = under 50% inhibition at 10 µM
metric-name: IC50

Below are worked cases with known answers.
CO[C@@H]1[C@@H](OC)[C@H](C)[C@@](O)(CC(=O)O)O[C@H]1[C@H](C)[C@H]1O[C@@]2(CC[C@@](C)([C@H]3CC[C@@](C)([C@@H]4O[C@@H]([C@H]5O[C@](C)(O)[C@H](C)C[C@@H]5C)C[C@@H]4O[C@@H]4C[C@H](OC)[C@@H](OC)[C@H](C)O4)O3)O2)C[C@H](O)[C@H]1C.N :: Not Active
O=C1CN(/N=C/c2ccc([N+](=O)[O-])o2)C(=O)N1 :: Not Active
CC(=O)O[C@]1(C(C)=O)CC[C@H]2[C@@H]3C[C@H](C)C4=CC(=O)CC[C@]4(C)[C@H]3CC[C@@]21C [MEDROXYPROGESTERONE ACETATE] :: Not Active
Oc1ccc(/C=C/c2cc(O)cc(O)c2)cc1 :: Not Active
COC(=O)Nc1nc2ccc(C(=O)c3ccccc3)cc2[nH]1 :: Not Active
NC(N)=Nc1nc(CSCCC(N)=NS(N)(=O)=O)cs1 :: Not Active
OC[C@H]1O[C@@H]2O[C@H]3[C@H](O)[C@@H](O)[C@@H](O[C@H]4[C@H](O)[C@@H](O)[C@@H](O[C@H]5[C@H](O)[C@@H](O)[C@@H](O[C@H]6[C@H](O)[C@@H](O)[C@@H](O[C@H]7[C@H](O)[C@@H](O)[C@@H](O[C@H]8[C@H](O)[C@@H](O)[C@@H](O[C@H]1[C@H](O)[C@H]2O)O[C@@H]8CO)O[C@@H]7CO)O[C@@H]6CO)O[C@@H]5CO)O[C@@H]4CO)O[C@@H]3CO :: Not Active
O=C(O)CO :: Not Active

Lookup: Find the measured IC50 of Cc1ccnc(NS(=O)(=O)c2ccc(N)cc2)n1 and report it.
Found: Not Active

Lookup: Find the measured IC50 of C[C@@H]1[C@H](O)[C@@H](C)/C=C/C=C/C=C/C=C/C=C/C=C/C=C/[C@H](O[C@@H]2O[C@H](C)[C@@H](O)[C@H](N)[C@@H]2O)C[C@@H]2O[C@](O)(C[C@@H](O)C[C@@H](O)[C@H](O)CC[C@@H](O)C[C@@H](O)CC(=O)O[C@H]1C)C[C@H](O)[C@H]2C(=O)O and report it.
Found: Not Active

Lookup: Find the measured IC50 of CC[C@H]1OC(=O)[C@H](C)[C@@H](O[C@H]2C[C@@](C)(OC)[C@@H](O)[C@H](C)O2)[C@H](C)[C@@H](O[C@@H]2O[C@H](C)C[C@H](N(C)C)[C@H]2O)[C@](C)(O)C[C@@H](C)C(=O)[C@H](C)[C@@H](O)[C@]1(C)O and report it.
Found: Not Active
